biological target: Cannabinoid receptor 2 (Homo sapiens); test: Displacement of [3H]CP-55940 from human CB2 receptor expressed in CHO cell membranes after 1 hr by scintillation counting analysis
Sequence (P34972 whole entry): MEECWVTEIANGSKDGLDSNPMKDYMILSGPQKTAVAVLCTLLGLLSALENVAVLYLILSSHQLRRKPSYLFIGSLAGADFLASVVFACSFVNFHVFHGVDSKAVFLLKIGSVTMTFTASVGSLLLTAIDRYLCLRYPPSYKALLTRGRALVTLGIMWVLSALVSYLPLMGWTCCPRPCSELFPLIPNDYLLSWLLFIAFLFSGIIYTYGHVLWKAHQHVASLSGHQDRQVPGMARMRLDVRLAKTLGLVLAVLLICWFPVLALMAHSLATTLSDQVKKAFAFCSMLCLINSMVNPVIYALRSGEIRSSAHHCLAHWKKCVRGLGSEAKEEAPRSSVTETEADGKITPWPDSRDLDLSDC

{"query-smiles": "CCN(CC)c1ccc(CN(Cc2ccco2)S(=O)(=O)c2ccc(C(C)C)cc2)cc1", "target": "Cannabinoid receptor 2 (Homo sapiens)", "unit-of-measurement": "nM", "Ki": 31}
{"query-smiles": "CCN(CC)c1ccc(CN(Cc2ccccc2)Cc2ccccc2)cc1", "target": "Cannabinoid receptor 2 (Homo sapiens)", "unit-of-measurement": "nM", "Ki": 150}
{"query-smiles": "CCN(CC)c1ccc(CN(Cc2ccccc2)S(=O)(=O)c2ccc3ccccc3c2)cc1", "target": "Cannabinoid receptor 2 (Homo sapiens)", "unit-of-measurement": "nM", "Ki": 190}
{"query-smiles": "CCN(CC)c1ccc(CN(Cc2ccccc2)S(=O)(=O)Cc2ccccc2)cc1", "target": "Cannabinoid receptor 2 (Homo sapiens)", "unit-of-measurement": "nM", "Ki": 262}
{"query-smiles": "CCN(CC)c1ccc(CN(CCc2ccccc2)S(=O)(=O)c2ccc(C)cc2)cc1", "target": "Cannabinoid receptor 2 (Homo sapiens)", "unit-of-measurement": "nM", "Ki": 120}
{"query-smiles": "CCN(CC)c1ccc(CN(Cc2ccccc2)S(=O)(=O)c2ccc(OC(F)(F)F)cc2)cc1", "target": "Cannabinoid receptor 2 (Homo sapiens)", "unit-of-measurement": "nM", "Ki": 577}
{"query-smiles": "CCN(CC)c1ccc(CN(c2ncc(C)s2)S(=O)(=O)c2ccc(OC)cc2)cc1", "target": "Cannabinoid receptor 2 (Homo sapiens)", "unit-of-measurement": "nM", "Ki": 4}
{"query-smiles": "CCN(CC)c1ccc(CN(Cc2ccccc2)S(=O)(=O)c2ccc(OC)cc2)cc1", "target": "Cannabinoid receptor 2 (Homo sapiens)", "unit-of-measurement": "nM", "Ki": 46}
{"query-smiles": "CCN(CC)c1ccc(CN(Cc2ccc(Cl)c(Cl)c2)S(=O)(=O)c2ccc(C)cc2)cc1", "target": "Cannabinoid receptor 2 (Homo sapiens)", "unit-of-measurement": "nM", "Ki": 390}
{"query-smiles": "CCCc1ccc(CN(Cc2ccccc2)S(=O)(=O)c2ccc(C)cc2)cc1", "target": "Cannabinoid receptor 2 (Homo sapiens)", "unit-of-measurement": "nM", "Ki": 130}
{"query-smiles": "CCN(CC)c1ccc(CN(C2CCCCC2)S(=O)(=O)c2ccc(OC)cc2)cc1", "target": "Cannabinoid receptor 2 (Homo sapiens)", "unit-of-measurement": "nM", "Ki": 75}
{"query-smiles": "CCN(CC)c1ccc(CN(Cc2ccccc2)S(=O)(=O)c2ccc(F)cc2)cc1", "target": "Cannabinoid receptor 2 (Homo sapiens)", "unit-of-measurement": "nM", "Ki": 102}
{"query-smiles": "CCN(CC)c1ccc(CN(Cc2ccccc2)S(=O)(=O)c2ccc(NC(C)=O)cc2)cc1", "target": "Cannabinoid receptor 2 (Homo sapiens)", "unit-of-measurement": "nM", "Ki": 470}
{"query-smiles": "CCN(CC)c1ccc(CN(c2ccccc2)S(=O)(=O)c2ccc(C(C)C)cc2)cc1", "target": "Cannabinoid receptor 2 (Homo sapiens)", "unit-of-measurement": "nM", "Ki": 30}
{"query-smiles": "CCN(CC)c1ccc(CN(Cc2ccc(N(CC)CC)cc2)S(=O)(=O)c2ccc(C)cc2)cc1", "target": "Cannabinoid receptor 2 (Homo sapiens)", "unit-of-measurement": "nM", "Ki": 540}
{"query-smiles": "CCN(CC)c1ccc(CN(Cc2ccco2)S(=O)(=O)c2ccc(C)cc2)cc1", "target": "Cannabinoid receptor 2 (Homo sapiens)", "unit-of-measurement": "nM", "Ki": 9.5}
{"query-smiles": "Cc1ccc(S(=O)(=O)N(Cc2ccccc2)Cc2ccc(C(C)C)cc2)cc1", "target": "Cannabinoid receptor 2 (Homo sapiens)", "unit-of-measurement": "nM", "Ki": 230}
{"query-smiles": "O=S(=O)(c1ccc(Cl)cc1)N(Cc1ccc(N2CCCCC2)cc1)c1ccccc1", "target": "Cannabinoid receptor 2 (Homo sapiens)", "unit-of-measurement": "nM", "Ki": 140}
{"query-smiles": "CCN(CC)c1ccc(CN(C2CCCCC2)S(=O)(=O)c2ccc(C(C)C)cc2)cc1", "target": "Cannabinoid receptor 2 (Homo sapiens)", "unit-of-measurement": "nM", "Ki": 55}
{"query-smiles": "Cc1ccc(S(=O)(=O)N(Cc2ccccc2)Cc2ccc(N(C)C)cc2)cc1", "target": "Cannabinoid receptor 2 (Homo sapiens)", "unit-of-measurement": "nM", "Ki": 680}
{"query-smiles": "CCN(CC)c1ccc(CN(C2CCCCC2)S(=O)(=O)c2ccc(C)cc2)cc1", "target": "Cannabinoid receptor 2 (Homo sapiens)", "unit-of-measurement": "nM", "Ki": 18}
{"query-smiles": "CCN(CC)c1ccc(CN(C2CCCC2)S(=O)(=O)c2ccc(C)cc2)cc1", "target": "Cannabinoid receptor 2 (Homo sapiens)", "unit-of-measurement": "nM", "Ki": 36}
{"query-smiles": "CCN(CC)c1ccc(CN(Cc2ccc(F)cc2)S(=O)(=O)c2ccc(C)cc2)cc1", "target": "Cannabinoid receptor 2 (Homo sapiens)", "unit-of-measurement": "nM", "Ki": 120}
{"query-smiles": "CCN(CC)c1ccc(CN(Cc2ccc(Cl)cc2)S(=O)(=O)c2ccc(C)cc2)cc1", "target": "Cannabinoid receptor 2 (Homo sapiens)", "unit-of-measurement": "nM", "Ki": 210}
{"query-smiles": "CCN(CC)c1ccc(CN(Cc2ccccc2)S(=O)(=O)c2ccc(-c3ccccc3)cc2)cc1", "target": "Cannabinoid receptor 2 (Homo sapiens)", "unit-of-measurement": "nM", "Ki": 166}
{"query-smiles": "CCN(CC)c1ccc(CNS(=O)(=O)c2ccc(C)cc2)cc1", "target": "Cannabinoid receptor 2 (Homo sapiens)", "unit-of-measurement": "nM", "Ki": 3600}
{"query-smiles": "CCN(CC)c1ccc(CN(Cc2cccs2)S(=O)(=O)c2ccc(C)cc2)cc1", "target": "Cannabinoid receptor 2 (Homo sapiens)", "unit-of-measurement": "nM", "Ki": 14}
{"query-smiles": "CCCCc1ccc(CN(Cc2ccccc2)S(=O)(=O)c2ccc(C)cc2)cc1", "target": "Cannabinoid receptor 2 (Homo sapiens)", "unit-of-measurement": "nM", "Ki": 280}
{"query-smiles": "CCN(CC)c1ccc(CN(Cc2ccccc2)S(=O)(=O)c2ccc(Cl)cc2)cc1", "target": "Cannabinoid receptor 2 (Homo sapiens)", "unit-of-measurement": "nM", "Ki": 73}
{"query-smiles": "C=CCc1ccc(CN(Cc2ccccc2)S(=O)(=O)c2ccc(C)cc2)cc1", "target": "Cannabinoid receptor 2 (Homo sapiens)", "unit-of-measurement": "nM", "Ki": 130}
{"query-smiles": "CCN(CC)c1ccc(CN(Cc2ccccc2)S(=O)(=O)c2ccc(C)cc2)cc1", "target": "Cannabinoid receptor 2 (Homo sapiens)", "unit-of-measurement": "nM", "Ki": 53}
{"query-smiles": "COc1ccc(S(=O)(=O)N(Cc2ccc(N3CCCCC3)cc2)c2ccccc2)cc1", "target": "Cannabinoid receptor 2 (Homo sapiens)", "unit-of-measurement": "nM", "Ki": 32}
{"query-smiles": "CCN(CC)c1ccc(CN(c2ccccc2)S(=O)(=O)c2ccc(C)cc2)cc1", "target": "Cannabinoid receptor 2 (Homo sapiens)", "unit-of-measurement": "nM", "Ki": 5.5}
{"query-smiles": "C=CCN(Cc1ccc(N(CC)CC)cc1)S(=O)(=O)c1ccc(C)cc1", "target": "Cannabinoid receptor 2 (Homo sapiens)", "unit-of-measurement": "nM", "Ki": 66}
{"query-smiles": "CCN(CC)c1ccc(CN(Cc2ccccc2)S(=O)(=O)c2ccccc2)cc1", "target": "Cannabinoid receptor 2 (Homo sapiens)", "unit-of-measurement": "nM", "Ki": 170}
{"query-smiles": "Cc1ccc(S(=O)(=O)N(Cc2ccc(N3CCCCC3)cc2)c2ccccc2)cc1", "target": "Cannabinoid receptor 2 (Homo sapiens)", "unit-of-measurement": "nM", "Ki": 310}

---

species: Homo sapiens; experiment: Selectivity ratio of Ki for human CB1 receptor to Ki for human CB2 receptor

{"query-smiles": "CCN(CC)c1ccc(CN(Cc2ccc(F)cc2)S(=O)(=O)c2ccc(C)cc2)cc1", "Ratio Ki": 20}
{"query-smiles": "CCN(CC)c1ccc(CN(c2ncc(C)s2)S(=O)(=O)c2ccc(OC)cc2)cc1", "Ratio Ki": 120}
{"query-smiles": "Cc1ccc(S(=O)(=O)N(Cc2ccccc2)Cc2ccc(N3CCCCC3)cc2)cc1", "Ratio Ki": 28}

---

species: Homo sapiens; test: Selectivity ratio of Ki for human CB1 receptor to Ki for human CB2 receptor
Readings of Ratio Ki for the listed molecules

{"query-smiles": "COc1ccc(S(=O)(=O)N(Cc2ccc(N3CCCCC3)cc2)c2ccccc2)cc1", "Ratio Ki": 18}
{"query-smiles": "CCN(CC)c1ccc(CN(C2CCCC2)S(=O)(=O)c2ccc(C)cc2)cc1", "Ratio Ki": 14}
{"query-smiles": "CCN(CC)c1ccc(CN(c2ccccc2)S(=O)(=O)c2ccc(OC)cc2)cc1", "Ratio Ki": 92}
{"query-smiles": "CCN(CC)c1ccc(CN(C2CCCCC2)S(=O)(=O)c2ccc(C(C)C)cc2)cc1", "Ratio Ki": 25}
{"query-smiles": "CCN(CC)c1ccc(CN(c2ccccc2)S(=O)(=O)c2ccc(C)cc2)cc1", "Ratio Ki": 15}
